Reported GI% UACC-257 values follow for various compounds
test system: UACC-257; experiment: NCI single dose (10 µM) SRB screen; assay type: cell-based, human; conditions: melanoma, 48 h

>>> result("CCOC(=O)C1=C(C)NC(C)=C(C(=O)OCc2ccccc2)C1c1cccc(C#N)c1 (racemic)")
"44%"

Here is the next item to consider.
Query :: Report GI% UACC-257 for COC(=O)C1=C(C)NC(C)=C(C(=O)OCc2ccccc2)C1c1cccc(C#N)c1 (racemic) please.
Result :: 21%

----------
tested on: C. albicans; test: MIC, two-fold microbroth dilution method; conditions: Candida albicans, read-out: MIC (µg/mL) C. albicans
Metric: MIC (µg/mL)
The response must be a number in µg/mL with no trailing unit.

Worked examples, 4 molecules total:
>>> number("CC1=C(C(=O)OCc2ccccc2)C(c2cccc(C#N)c2)C(C(=O)OCc2ccccc2)=C(C)N1")
64
>>> number("COCCOC(=O)C1=C(C)NC(C)=C(C(=O)OCCOC)C1c1cccc(C#N)c1")
16
>>> number("COC(=O)C1=C(C)NC(C)=C(C(=O)OC(C)C)C1c1cccc(C#N)c1 (racemic)")
4
>>> number("CCOC(=O)C1=C(C)NC(C)=C(C(=O)OCCOC)C1c1cccc(C#N)c1 (racemic)")
32

Query :: Item Clc1ccccc1C(c1ccccc1)(c1ccccc1)n1ccnc1 [Clotrimazole, reference compound] has what recorded MIC?
Result :: 2

Query :: What do you get for CCOC(=O)C1=C(C)NC(C)=C(C(=O)OC)C1c1cccc(C#N)c1 (racemic) ?
Result :: 1

Query :: Item: CCOC(=O)C1=C(C)NC(C)=C(C(=O)OC(C)(C)C)C1c1cccc(C#N)c1 (racemic)
Result :: 16

----------
system: EKVX; test: NCI single dose (10 µM) SRB screen; type: cell-based, human; settings: non-small cell lung cancer, 48 h
Metric: GI% EKVX

Query :: Report GI% EKVX for CC1=C(C(=O)OCc2ccccc2)C(c2cccc(C#N)c2)C(C(=O)OCc2ccccc2)=C(C)N1 please.
Result :: 50%

----------
melting point reference

// solved cases for melting point follow
>>> result("CC1=C(C(=O)OC(C)C)C(c2cccc(C#N)c2)C(C(=O)OC(C)C)=C(C)N1")
"124 to 125 °C"
>>> result("COCCOC(=O)C1=C(C)NC(C)=C(C(=O)OCCOC)C1c1cccc(C#N)c1")
"125 to 126 °C"
>>> result("COC(=O)C1=C(C)NC(C)=C(C(=O)OC)C1c1cccc(C#N)c1")
"200 to 202 °C"
>>> result("COC(=O)C1=C(C)NC(C)=C(C(=O)OC(C)C)C1c1cccc(C#N)c1 (racemic)")
"128 to 130 °C"
>>> result("CCOC(=O)C1=C(C)NC(C)=C(C(=O)OCCOC)C1c1cccc(C#N)c1 (racemic)")
"133 to 134 °C"
>>> result("CC1=C(C(=O)OCC(C)C)C(c2cccc(C#N)c2)C(C(=O)OCC(C)C)=C(C)N1")
"146 to 148 °C"
>>> result("CCCC1=C(C(=O)OCC)C(c2cccc(C#N)c2)C(C(=O)OC)=C(C)N1 (racemic)")
"121 to 122 °C"

Query :: Consider the compound shown here: CCOC(=O)C1=C(C)NC(C)=C(C(=O)OC)C1c1cccc(C#N)c1 (racemic) What is its recorded melting point?
Result :: 151 to 153 °C
